TEST DESCRIPTION: in vitro
CONDITION CONTEXT: human, plasma
Description: Plasma protein binding in human by RED analysis
Hi there, I'd appreciate the recorded fraction unbound for every entry that follows.

Below are worked cases with known answers.
Cc1sc2c(c1C)C(c1ccc(Cl)cc1)=N[C@@H](CC(=O)Nc1ccc(O)cc1)c1nnc(C)n1-2 [BIRABRESIB]	0.027
Cc1sc2c(c1C)C(c1ccc(Cl)cc1)=N[C@@H](CC(=O)NCc1ccon1)c1nnc(C)n1-2	0.065

Field: next molecule
In: Using the record for Cc1sc2c(c1C)C(c1ccc(Cl)cc1)=N[C@@H](CC(=O)OC(C)(C)C)c1nnc(C)n1-2 , report its fraction unbound.
Out: 0.008
